# SYSTEM: hCA XII (Homo sapiens, UniProt O43570)
# Construct: made in house
# Sequence (O43570 25-354): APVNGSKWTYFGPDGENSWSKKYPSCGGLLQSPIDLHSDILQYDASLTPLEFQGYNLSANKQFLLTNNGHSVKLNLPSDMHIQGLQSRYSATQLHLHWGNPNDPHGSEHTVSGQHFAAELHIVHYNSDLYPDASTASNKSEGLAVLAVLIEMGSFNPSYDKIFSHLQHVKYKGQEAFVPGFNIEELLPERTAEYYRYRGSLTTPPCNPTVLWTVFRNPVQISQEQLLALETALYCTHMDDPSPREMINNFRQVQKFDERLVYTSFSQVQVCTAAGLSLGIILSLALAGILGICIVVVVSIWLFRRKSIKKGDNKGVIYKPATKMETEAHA
# EXPERIMENT: stopped flow CO2 hydrase assay, CA XII
# Type: biochemical
# TEST_CONTEXT: ratio between KI values
Entries and their Selectivity index (SI) CA II/CA XII

These recorded examples may help you get a feel for the data.
COMPOUND | Selectivity index (SI) CA II/CA XII
CCC(=O)Nc1cc(S(N)(=O)=O)ccc1OCc1cn(CCCS(=O)(=O)[O-])nn1.[Na+] [Compound 40] | 0.14
NS(=O)(=O)c1ccc(OCc2cn(CCCS(=O)(=O)[O-])nn2)cc1.[Na+] [Compound 31] | 0.02
NS(=O)(=O)c1ccc(NC(=O)NCc2cn(CCCS(=O)(=O)[O-])nn2)cc1.[Na+] [Compound 34] | 0.11

Please examine the following record next.
Qu. Using the record for NS(=O)(=O)c1ccc(NCc2cn(CCCS(=O)(=O)[O-])nn2)cc1.[Na+] [Compound 32] , state its measured Selectivity index (SI) CA II/CA XII.
Ans. 0.01

---

Overview of reported melting point across a group of compounds:

Below: 2 compounds and their reported melting point.
MOLECULAR_STRING | READING
NS(=O)(=O)c1ccc(CCNC(=O)NCc2cn(CCCS(=O)(=O)[O-])nn2)cc1.[Na+] | 217 to 219 °C
C#CCNC(=S)Nc1ccc(S(N)(=O)=O)cc1 | 235 to 238 °C

Next compound, melting point to be filled in.
Qu. For the compound CCC(=O)Nc1cc(S(N)(=O)=O)ccc1OCc1cn(CCCS(=O)(=O)[O-])nn1.[Na+] , give its measured melting point value.
Ans. > 300 °C
